Data credit: the supplement of paper PMC10567573

B1: INTS3 (parent)
chain: YPPLEGHVRQGVFSSLNHIVEKRV

Variants of: B1
Assay explanation: protein stability index of a GFP-peptide fusion (GPS, HEK-293T) (PSI 1-6); higher = more stable;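 also: lentivirally expressed fusions sorted by FACS into six bins by GFP to DsRed ratio, PSI derived from sequencing read proportions per bin multiplied by bin number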
Measurement parameters: c terminus: a fixed tail appended
For each of the variants below, state its protein stability index.

Consider the reported protein stability index for these variants:
Construct sequence	protein stability index
YPPLEGHVRQGVSSSLNHIVEKRV [F13S]	3.65
YPPLEGHVRQGVFSSLNHIVEARV [K22A]	2.29
YPYLEGHVRQGVFSSLNHIVEKRV [P3Y]	2.08

Report protein stability index for every entry below.
1. YPPLEGHVRQGSFSSLNHIVEKRV [V12S]
2. YPPLEGHVIQGVFSSLNHIVEKRV [R9I]

OUTPUT:
1: 2.11; 2: 1.38

Report protein stability index for every entry below.
1. YPPLEGHVRQGVFSSLNHISEKRV [V20S]
2. YPPLEGHVPQGVFSSLNHIVEKRV [R9P]
3. YPPLEGHYRQGVFSSLNHIVEKRV [V8Y]
4. YPPLEGHVRQGVFSSLNHIVSKRV [E21S]
5. YPPLEGHVRQGVFSSLNCIVEKRV [H18C]

OUTPUT:
1: 2.29; 2: 2.77; 3: 2.21; 4: 2.05; 5: 2.01

Report protein stability index for every entry below.
1. YPSLEGHVRQGVFSSLNHIVEKRV [P3S]
2. YPPLEGHVRQVVFSSLNHIVEKRV [G11V]

OUTPUT:
3.19
2.33

Report protein stability index for every entry below.
1. CPPLEGHVRQGVFSSLNHIVEKRV [Y1C]
2. YPPLEGHVRQGGFSSLNHIVEKRV [V12G]
3. YPPLEGHVRQGVFSSLNHIMEKRV [V20M]

OUTPUT:
1: 3.94; 2: 2.54; 3: 2.7
